The reported measurements were obtained from paper PMC10783087.

Test system: WT Mtb Erdman
Assay type: cell-based, M. tuberculosis
CONDITION DESCRIPTION: area under the dose-response curve
# WT AUC annotations
Respond with the number and no other words.

I'd like to know its WT AUC. The compound in question is `CC(C)N(C(=O)CNc1nc2cc(Cl)c(Cl)cc2[nH]1)C(C)C`
214.5

###

Tested on: Mtb H37Rv
Type: cell-based, M. tuberculosis
CONDITION DESCRIPTION: 16 × MIC
# Frequency of resistance, 16 × MIC annotations

COMPOUND: Cc1cc2nc(SCC(=O)N(C(C)C)C(C)C)[nH]c2cc1C
Frequency of resistance, 16 × MIC: 0
//
COMPOUND: NNC(=O)c1ccncc1
Frequency of resistance, 16 × MIC: 2.71 × 10^−6
//
COMPOUND: CC1COc2c(N3CCN(C)CC3)c(F)cc3c(=O)c(C(=O)O)cn1c23 (stereo not shown)
Frequency of resistance, 16 × MIC: 3.57 × 10^−8

As a next step, examine the compound that follows.
I'd like to know its Frequency of resistance, 16 × MIC. The compound in question is `COc1nc2ccc(Br)cc2cc1[C@@H](c1ccccc1)[C@@](O)(CCN(C)C)c1cccc2ccccc12`
3.57 × 10^−8

###

Test system: WT Mtb Erdman
Type: cell-based, M. tuberculosis
CONDITION DESCRIPTION: area under the dose-response curve
PARAMETER MEASURED: WT AUC
Respond with the number and no other words.

Here's what some known entries look like.
SMILES REPR: CC(C)N(C(=O)COc1nc2cc(Cl)c(Cl)cc2[nH]1)C(C)C
TESTED SYSTEM: WT Mtb Erdman
WT AUC: 247.5
--
SMILES REPR: Cc1cc2nc(SCC(=O)N(C(C)C)C(C)C)[nH]c2cc1C
TESTED SYSTEM: WT Mtb Erdman
WT AUC: 169.9

I'd like to know its WT AUC. The compound in question is `Cc1ccc2nc(SCC(=O)N(C(C)C)C(C)C)[nH]c2c1`
101.7

###

# Frequency of resistance, 16 × MIC annotations
Test system: Mtb H37Rv
Type: cell-based, M. tuberculosis
CONDITION DESCRIPTION: 16 × MIC

Here's what some known entries look like.
COMPOUND: CO[C@H]1/C=C/O[C@@]2(C)Oc3c(C)c(O)c4c(O)c(c(/C=N/N5CCN(C)CC5)c(O)c4c3C2=O)NC(=O)/C(C)=C\C=C\[C@H](C)[C@H](O)[C@@H](C)[C@@H](O)[C@@H](C)[C@H](OC(C)=O)[C@@H]1C [Rifampicin]
TESTED SYSTEM: Mtb H37Rv
Frequency of resistance, 16 × MIC: 3.57 × 10^−8
--
COMPOUND: O=[N+]([O-])c1cn2c(n1)OC[C@@H](OCc1ccc(OC(F)(F)F)cc1)C2 [Pretomanid]
TESTED SYSTEM: Mtb H37Rv
Frequency of resistance, 16 × MIC: 1.43 × 10^−7

As a next step, examine the compound that follows.
Mtb H37Rv / Frequency of resistance, 16 × MIC / CC[C@@H](CO)NCCN[C@@H](CC)CO [Ethambutol] : value?
1.79 × 10^−8
